- Tested on: ENR+CD organoids (ISC to Paneth cell differentiation)
- experiment_notes: Primary screen: CCh-stimulated lysozyme secretion LYZ.S, 2.5-D 384-well ENR+CD organoid differentiation
- Assay type: cell-based, mouse
- condition_label: primary screen; dose 0.40 uM; FC vs plate median
Overview of reported Dose.FC.LYZ.S across a group of compounds:

- compound: "CN(Cc1cnc2nc(N)nc(N)c2n1)c1ccc(C(=O)N[C@@H](CCC(=O)O)C(=O)O)cc1 [Methotrexate]"
  Dose.FC.LYZ.S (log2 fold change): "−0.129"
- compound: "CN1C(=O)C(Cc2c[nH]c3ccccc23)NC1=S (stereo not drawn) [Necrostatin-1]"
  Dose.FC.LYZ.S (log2 fold change): 0.038
- compound: "CC(C)(F)C[C@H](N[C@@H](c1ccc(-c2ccc(S(C)(=O)=O)cc2)cc1)C(F)(F)F)C(=O)NC1(C#N)CC1 [Odanacatib (MK-0822)]"
  Dose.FC.LYZ.S (log2 fold change): 0.170

###

- System: ENR+CD organoids (ISC to Paneth cell differentiation)
- experiment_notes: Primary screen: basal (non-stimulated) lysozyme secretion LYZ.NS, 2.5-D 384-well ENR+CD organoid differentiation
- Type: cell-based, mouse
- condition_label: primary screen, dose 0.08 uM
Where a name gives a salt, the structure may show the parent alone.
Criterion: Dose.FC.LYZ.NS strictly under 0.05 log2 fold change. Met: true (1). Not met: false (0).

- molecule: "CC(C)CCN1c2nc(Nc3cc(F)c(O)c(F)c3)ncc2N(C)C(=O)C1C (stereo not drawn) [BI-D1870]"
  experimental_target: "ENR+CD organoids (ISC to Paneth cell differentiation)"
  qualitative_label: "false (0)"
- molecule: "CCC(=O)Nc1cccc(Oc2nc(Nc3ccc(N4CCN(C)CC4)cc3OC)ncc2Cl)c1 [WZ4003]"
  experimental_target: "ENR+CD organoids (ISC to Paneth cell differentiation)"
  qualitative_label: "false (0)"
- molecule: "NC1(Cc2ccc(Cl)cc2)CCN(c2ncnc3[nH]ccc23)CC1 [CCT128930]"
  experimental_target: "ENR+CD organoids (ISC to Paneth cell differentiation)"
  qualitative_label: "false (0)"
- molecule: "O=C(Nc1cccc(C(F)(F)F)c1)Nc1cc(S(=O)(=O)NC2CC2)ccc1-c1ccsc1 [AGI-6780]"
  experimental_target: "ENR+CD organoids (ISC to Paneth cell differentiation)"
  qualitative_label: "false (0)"
- molecule: "COc1ccc2cccc(CCNC(C)=O)c2c1 [Agomelatine]"
  experimental_target: "ENR+CD organoids (ISC to Paneth cell differentiation)"
  qualitative_label: "true (1)"
- molecule: "CCCCN1CCCCC1C(=O)Nc1c(C)cccc1C (stereo not drawn) [Bupivacaine HCl]"
  experimental_target: "ENR+CD organoids (ISC to Paneth cell differentiation)"
  qualitative_label: "true (1)"
- molecule: "COc1cc2c(cc1O)CC[C@@H]1[C@@H]2CC[C@]2(C)[C@@H](O)CC[C@@H]12 [2-Methoxyestradiol (2-MeOE2)]"
  experimental_target: "ENR+CD organoids (ISC to Paneth cell differentiation)"
  qualitative_label: "true (1)"
- molecule: "CN1CCc2cc3c(cc2[C@H]1[C@@H]1OC(=O)c2c1ccc1c2OCO1)OCO3 [(+)-Bicuculline]"
  experimental_target: "ENR+CD organoids (ISC to Paneth cell differentiation)"
  qualitative_label: "false (0)"
- molecule: "C[C@@H](NCCCc1cccc(C(F)(F)F)c1)c1cccc2ccccc12 [Cinacalcet HCl]"
  experimental_target: "ENR+CD organoids (ISC to Paneth cell differentiation)"
  qualitative_label: "true (1)"
- molecule: "Cc1ccc(S(=O)(=O)NC(=O)NN2CC3CCCC3C2)cc1 (stereo not drawn) [Gliclazide]"
  experimental_target: "ENR+CD organoids (ISC to Paneth cell differentiation)"
  qualitative_label: "true (1)"
- molecule: "C/C(=C\\C(=O)Nc1ccccc1C(=O)O)c1ccc2ccccc2c1 [BIBR 1532]"
  experimental_target: "ENR+CD organoids (ISC to Paneth cell differentiation)"
  qualitative_label: "true (1)"
- molecule: "CCOc1nc2cccc(C(=O)O)c2n1Cc1ccc(-c2ccccc2-c2nnn[nH]2)cc1 [Candesartan]"
  experimental_target: "ENR+CD organoids (ISC to Paneth cell differentiation)"
  qualitative_label: "true (1)"
- molecule: "CN(C)CCCCC(=O)Nc1ccc(NC(=S)NC(=O)c2ccc(C(C)(C)C)cc2)cc1 [Tenovin-6]"
  experimental_target: "ENR+CD organoids (ISC to Paneth cell differentiation)"
  qualitative_label: "false (0)"
- molecule: "CC1(COc2ccc3c(c2)ncn3-c2ccc3cccc(N4CCC(N)CC4)c3n2)COC1 [Crenolanib (CP-868596)]"
  experimental_target: "ENR+CD organoids (ISC to Paneth cell differentiation)"
  qualitative_label: "false (0)"
- molecule: "CCN(c1cc(-c2ccc(CN3CCOCC3)cc2)cc(C(=O)NCc2c(C)cc(C)[nH]c2=O)c1C)C1CCOCC1 [EPZ-6438]"
  experimental_target: "ENR+CD organoids (ISC to Paneth cell differentiation)"
  qualitative_label: "true (1)"
- molecule: "NC(=O)Nc1sc(-c2ccc(F)cc2)cc1C(N)=O [TPCA-1]"
  experimental_target: "ENR+CD organoids (ISC to Paneth cell differentiation)"
  qualitative_label: "false (0)"
- molecule: "COc1ccc2cc(-c3nc(-c4ccc([S+](C)[O-])cc4)[nH]c3-c3ccncc3)ccc2c1 (stereo not drawn) [Tie2 kinase inhibitor]"
  experimental_target: "ENR+CD organoids (ISC to Paneth cell differentiation)"
  qualitative_label: "true (1)"
- molecule: "Cn1cc(C2=C(c3cn(C4CCN(Cc5ccccn5)CC4)c4ccccc34)C(=O)NC2=O)c2ccccc21 [Enzastaurin (LY317615)]"
  experimental_target: "ENR+CD organoids (ISC to Paneth cell differentiation)"
  qualitative_label: "false (0)"
- molecule: "OC[C@H]1O[C@@H](c2ccc(Cl)c(Cc3ccc(O[C@H]4CCOC4)cc3)c2)[C@H](O)[C@@H](O)[C@@H]1O [Empagliflozin (BI 10773)]"
  experimental_target: "ENR+CD organoids (ISC to Paneth cell differentiation)"
  qualitative_label: "true (1)"
- molecule: "Nc1nc(N)c2nc(-c3cccc(O)c3)c(-c3cccc(O)c3)nc2n1 [TG100-115]"
  experimental_target: "ENR+CD organoids (ISC to Paneth cell differentiation)"
  qualitative_label: "false (0)"
- molecule: "Cc1ccc(NC(=O)C2(c3ccc4c(c3)OC(F)(F)O4)CC2)nc1-c1cccc(C(=O)O)c1 [VX-809 (Lumacaftor)]"
  experimental_target: "ENR+CD organoids (ISC to Paneth cell differentiation)"
  qualitative_label: "false (0)"
- molecule: "Cc1nc(C(=O)NCC(=O)O)c(O)c2ccc(Oc3ccccc3)cc12 [FG-4592]"
  experimental_target: "ENR+CD organoids (ISC to Paneth cell differentiation)"
  qualitative_label: "false (0)"
- molecule: "C=CC(=O)Nc1cccc(Nc2nc(Nc3ccc(OCCOC)cc3)ncc2F)c1 [AVL-292]"
  experimental_target: "ENR+CD organoids (ISC to Paneth cell differentiation)"
  qualitative_label: "false (0)"
- molecule: "N#C[C@@H]1CCCN1C(=O)CNC12CC3CC(CC(O)(C3)C1)C2 [Vildagliptin (LAF-237)]"
  experimental_target: "ENR+CD organoids (ISC to Paneth cell differentiation)"
  qualitative_label: "false (0)"
- molecule: "N#Cc1c(O)c2c(-c3ccc(-c4ccccc4O)cc3)csc2[nH]c1=O [A-769662]"
  experimental_target: "ENR+CD organoids (ISC to Paneth cell differentiation)"
  qualitative_label: "true (1)"
- molecule: "C[C@@H](c1ncncc1F)[C@](O)(Cn1cncn1)c1ccc(F)cc1F [Voriconazole]"
  experimental_target: "ENR+CD organoids (ISC to Paneth cell differentiation)"
  qualitative_label: "false (0)"
- molecule: "CN(C)C(=O)[C@H](O)[C@H](Cc1ccccc1)NC(=O)c1cc2cc(Cl)ccc2[nH]1 [CP-91149]"
  experimental_target: "ENR+CD organoids (ISC to Paneth cell differentiation)"
  qualitative_label: "false (0)"
- molecule: "O=c1ncccn1[C@@H]1O[C@H](CO)[C@@H](O)[C@H]1O [Zebularine]"
  experimental_target: "ENR+CD organoids (ISC to Paneth cell differentiation)"
  qualitative_label: "true (1)"
- molecule: "CCOC(=O)c1ccc(NC2CCCCC2)c(N)c1 [Ferrostatin-1 (Fer-1)]"
  experimental_target: "ENR+CD organoids (ISC to Paneth cell differentiation)"
  qualitative_label: "false (0)"
- molecule: "CC1C(=O)OC2C(O)C34C5CC(C(C)(C)C)C36C(OC(=O)C6O)OC4(C(=O)O5)C12O (stereo not drawn) [Ginkgolide B]"
  experimental_target: "ENR+CD organoids (ISC to Paneth cell differentiation)"
  qualitative_label: "true (1)"

Value source: patent US20220323406A1
